MEASUREMENT TARGET: fusion protein PRA
Sequence (chain, as listed by the source): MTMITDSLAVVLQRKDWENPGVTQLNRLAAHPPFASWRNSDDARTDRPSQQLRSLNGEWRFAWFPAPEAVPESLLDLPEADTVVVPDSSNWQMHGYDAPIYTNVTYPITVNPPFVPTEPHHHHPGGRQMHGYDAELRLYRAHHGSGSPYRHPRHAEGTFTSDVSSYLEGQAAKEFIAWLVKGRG
ASSAY ENDPOINT: relative cleavage efficiency

Query: What measured relative cleavage efficiency goes with OmpT protease variant OmpT D97A (protein) STETLSFTPDNINADISLGTLSGKTKERVYLAEEGGRKVSQLDWKFNNAAIIKGAINWDLMPQISIGAAGWTTLGSRGGNMVDQDWMDSSNPGTWTAESRHPDTQLNYANEFDLNIKGWLLNEPNYRLGLMAGYQESRYSFTARGGSYIYSSEEGFRDDIGSFPNGERAIGYKQRFKMPYIGLTGSYRYEDFELGGTFKYSGWVESSDNDEHYDPGKRITYRSKVKDQNYYSVAVNAGYYVTPNAKVYVEGAWNRVTNKKGNTSLYDHNNNTSDYSKNGAGIENYNFITTAGLKYTF ?
Result: 3.8%
